Please provide measured Endocytosis efficiency (%) for the entries that follow.
Target: T1, human Nectin-4 (human, UniProt Q96NY8 32-510)
T1 sequence (looked up): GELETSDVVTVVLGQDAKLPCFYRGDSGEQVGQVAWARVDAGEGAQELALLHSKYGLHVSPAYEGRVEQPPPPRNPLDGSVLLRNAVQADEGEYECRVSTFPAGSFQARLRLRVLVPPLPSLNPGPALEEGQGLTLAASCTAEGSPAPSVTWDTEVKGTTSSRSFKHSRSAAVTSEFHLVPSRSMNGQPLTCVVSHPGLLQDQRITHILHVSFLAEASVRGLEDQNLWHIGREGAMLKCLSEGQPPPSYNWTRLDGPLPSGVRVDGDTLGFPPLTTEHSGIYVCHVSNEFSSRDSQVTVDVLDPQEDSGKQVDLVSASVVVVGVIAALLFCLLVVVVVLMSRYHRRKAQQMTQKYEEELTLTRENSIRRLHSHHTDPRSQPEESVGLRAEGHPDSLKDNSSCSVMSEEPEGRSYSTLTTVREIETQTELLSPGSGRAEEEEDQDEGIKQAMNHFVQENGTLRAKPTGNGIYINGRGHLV
Assay: cell-based or functional assay
Answer as a quantity: numeral, then unit.

Binder: 5M21 hz11 (antibody, human IgG1, kappa, V domains shown, Humanized) VH: QVQLVQSGAEVKKPGASVKVSCKASGYTFTTYYIHWVRQAPGQRLEWMGWIYPGNVNTKYNEKFKGRVTITADKSASTAYMELSSLRSEDTAVYYCARGLYYFDYWGQGTLVTVSS VL: DIQMTQSPSSLSASVGDRVTITCKASQSVSNDVAWYQQKPGKVPKLLIYYASNRYTGVPSRFSGSGSGTDFTLTISSLQPEDLATYFCQQDYSSPYTFGGGTKVEIKR
Assay Value: 64.4%

Lab note: measured Endocytosis efficiency (%) of chimeric antibody 5M21 xiIgG (antibody, V domains shown) VH: QVQLQQSGPELVKPGASVRITCKASGYTFTTYYIHWVKQRPGQGLEWIGWIYPGNVNTKYNEKFKGKATLTADKSSSTAYMQLSSLTSEDSAVYFCARGLYYFDYWGQGTTLTVSS VL: SIVMTQTPKFLLVSAGDRLTITCKASQSVSNDVAWYQQKPGQSPKLLIYYASNRYTGVPDRFTGSGYGTDFTFTISTVQAEDLAVYFCQQDYSSPYTFGGGTKLEIKR was 56.9%
